# Test system: P. aeruginosa E411-17
# measurement_description: microbe, parasite or virus in culture
# Assay type: cell-based, Pseudomonas aeruginosa
# experimental_conditions: E411-17; read-out: MIC P. aeruginosa E411-17
Square brackets hold non-standard residues; d marks the D form. Peptide text beside a SMILES is read from it.

{"columns": ["molecule", "MIC"],
 "data": [
  ["CC(C)C[C@@H](NC(=O)[C@@H](CC(C)C)NC(=O)[C@@H](CCCCN)NC(=O)[C@@H](CC(C)C)NC(=O)CNC(=O)[C@@H](CC(C)C)NC(=O)[C@@H](CO)NC(=O)[C@@H](CC(C)C)NC(=O)[C@@H](CC(C)C)NC(=O)[C@@H](CC(C)C)NC(=O)[C@@H](CCCCN)NC(=O)[C@@H](CC(C)C)NC(=O)CN)C(N)=O [DFT561d, GLKLLLSLGLKLL] (H-G[dL][dK][dL][dL][dL][dS][dL]G[dL][dK][dL][dL]-NH2; N-terminus and C-terminus assumed)", ">50 µM"],
  ["CC(C)C[C@H](NC(=O)[C@H](CC(C)C)NC(=O)[C@H](CCCCN)NC(=O)[C@H](CC(C)C)NC(=O)CNC(=O)[C@H](CC(C)C)NC(=O)[C@H](CO)NC(=O)[C@H](CC(C)C)NC(=O)[C@H](CC(C)C)NC(=O)[C@H](CC(C)C)NC(=O)[C@H](CCCCN)NC(=O)[C@H](CC(C)C)NC(=O)CN)C(N)=O [DFT561, GLKLLLSLGLKLL] (H-GLKLLLSLGLKLL-NH2; N-terminus and C-terminus assumed)", ">50 µM"],
  ["CC[C@H](C)[C@H](NC(=O)[C@H](CCCCN)NC(=O)[C@H](CCCNC(=N)N)NC(=O)[C@H](CC(C)C)NC(=O)[C@H](Cc1c[nH]c2ccccc12)NC(=O)[C@H](Cc1c[nH]c2ccccc12)NC(=O)[C@@H](N)Cc1c[nH]c2ccccc12)C(=O)N[C@@H](Cc1c[nH]c2ccccc12)C(N)=O [WW291, WWWLRKIW] (H-WWWLRKIW-NH2; N-terminus and C-terminus assumed)", ">32 µM"],
  ["CC(C)C[C@@H](NC(=O)[C@@H](CC(C)C)NC(=O)[C@@H](CCCCN)NC(=O)[C@@H](CC(C)C)NC(=O)CNC(=O)[C@@H](CC(C)C)NC(=O)[C@@H](CO)NC(=O)[C@@H](CC(C)C)NC(=O)[C@@H](CC(C)C)NC(=O)[C@@H](CC(C)C)NC(=O)[C@@H](CO)NC(=O)[C@@H](CC(C)C)NC(=O)CN)C(N)=O [DFT503d, GLSLLLSLGLKLL] (H-G[dL][dS][dL][dL][dL][dS][dL]G[dL][dK][dL][dL]-NH2; N-terminus and C-terminus assumed)", ">50 µM"]
]}

###

Each item that follows carries a reported HC50 at 1 h.
# measurement_description: Hemolytic assay
# Format: cell-based, human
# experimental_conditions: human, human red blood cells, 2% (v/v)
Square brackets hold non-standard residues; d marks the D form. Peptide text beside a SMILES is read from it.

{"columns": ["molecule", "HC50 at 1 h"],
 "data": [
  ["CC(C)C[C@@H](NC(=O)[C@@H](CC(C)C)NC(=O)[C@@H](CCCCN)NC(=O)[C@@H](CC(C)C)NC(=O)CNC(=O)[C@@H](CC(C)C)NC(=O)[C@@H](CO)NC(=O)[C@@H](CC(C)C)NC(=O)[C@@H](CC(C)C)NC(=O)[C@@H](CC(C)C)NC(=O)[C@@H](CO)NC(=O)[C@@H](CC(C)C)NC(=O)CN)C(N)=O [DFT503d, GLSLLLSLGLKLL] (H-G[dL][dS][dL][dL][dL][dS][dL]G[dL][dK][dL][dL]-NH2; N-terminus and C-terminus assumed)", "> 300 µM"],
  ["CC(C)C[C@H](NC(=O)[C@H](CC(C)C)NC(=O)[C@H](CCCCN)NC(=O)[C@H](CC(C)C)NC(=O)CNC(=O)[C@H](CC(C)C)NC(=O)[C@H](CCCCN)NC(=O)[C@H](CC(C)C)NC(=O)[C@H](CC(C)C)NC(=O)[C@H](CC(C)C)NC(=O)[C@H](CO)NC(=O)[C@H](CC(C)C)NC(=O)CN)C(N)=O [DFT562, GLSLLLKLGLKLL] (H-GLSLLLKLGLKLL-NH2; N-terminus and C-terminus assumed)", "< 25 µM"],
  ["CC(C)C[C@H](NC(=O)[C@H](CC(C)C)NC(=O)[C@H](CCCCN)NC(=O)[C@H](CC(C)C)NC(=O)CNC(=O)[C@H](CC(C)C)NC(=O)[C@H](CO)NC(=O)[C@H](CC(C)C)NC(=O)[C@H](CC(C)C)NC(=O)[C@H](CO)NC(=O)CNC(=O)[C@H](CC(C)C)NC(=O)[C@@H](N)CC(C)C)C(N)=O [DFT532, LLGSLLSLGLKLL] (H-LLGSLLSLGLKLL-NH2; N-terminus and C-terminus assumed)", "13 µM"]
]}
